Test system: PC-3
Assay: In vitro killing of prostate cancer cell lines, CellTiter 96 cell survival
Assay type: cell-based
Conditions: Homo sapiens, 60 hrs in RPMI with 10% FBS
readoutLabel: EC50 (µM)
Value expressed in µM; do not type the unit.

Field EC50 (entry O=C(O)CCCCC(CCSCc1ccccc1)SCc1ccccc1 (stereo not shown) ) reads 202

###

System: LnCap
Assay: In vitro killing of prostate cancer cell lines, CellTiter 96 cell survival
Format: cell-based
Details: Homo sapiens, 60 hrs in RPMI with 10% FBS
readoutLabel: EC50
Report field: quantity (unit follows the number).

Field EC50 (entry O=C(O)CCCCC(CCSCc1ccccc1)SCc1ccccc1 (stereo not shown) ) reads 114 µM

###

Test system: RWPI-1
Assay: In vitro killing of prostate cancer cell lines, CellTiter 96 cell survival
Type: cell-based
Details: 60 hrs in RPMI with 10% FBS
readoutLabel: pEC50
Give only the number. pEC50 is defined as minus log10 of concentration in molar units.

Field pEC50 (entry O=C(O)CCCCC(CCSCc1ccccc1)SCc1ccccc1 (stereo not shown) ) reads 3.83
